Biological target: T1, TNFR1 (Homo sapiens, UniProt P19438)
T1 chain: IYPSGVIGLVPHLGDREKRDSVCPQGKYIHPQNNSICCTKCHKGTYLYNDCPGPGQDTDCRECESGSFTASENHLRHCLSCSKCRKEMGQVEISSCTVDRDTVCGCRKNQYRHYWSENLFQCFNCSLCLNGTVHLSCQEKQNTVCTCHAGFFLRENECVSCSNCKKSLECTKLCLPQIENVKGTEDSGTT
Test: yeast display SC50
VALUE_KIND: apparent Kd (screen) (nM)

[[record]]
binder = "E58P (designed binder) MTLQELLREEALRRAEAEAFRYALELLAEKFPEQKEYLLDLAEEIESQIRSLSGVDVPDVRKFLDKEWAWVKELLAEHPAELAEVEAARAARLAELRAEVEAKVAA"
value_kind = "apparent Kd (screen)"
units_text = "nM"
quantitative_result = 0.718

[[record]]
binder = "E16S (designed binder) MTLQELLREEALRRASAEAFRYALELLAEKFPEQKEYLLDLAEEIESQIRSLSGVDVEDVRKFLDKEWAWVKELLAEHPAELAEVEAARAARLAELRAEVEAKVAA"
value_kind = "apparent Kd (screen)"
units_text = "nM"
quantitative_result = 0.653

[[record]]
binder = "L74W (designed binder) MTLQELLREEALRRAEAEAFRYALELLAEKFPEQKEYLLDLAEEIESQIRSLSGVDVEDVRKFLDKEWAWVKEWLAEHPAELAEVEAARAARLAELRAEVEAKVAA"
value_kind = "apparent Kd (screen)"
units_text = "nM"
quantitative_result = 0.189

